Every entry's value here was drawn from BindingDB's records for doi:10.7270/Q2CV4GM1.

Target or system Tyrosine-protein kinase SYK [355-635] (Homo sapiens, UniProt P43405): recorded IC50 listed per item.
RESULT TYPE: IC50

INSERT INTO measurements (molecule, result_type, measured_value) VALUES
  ('CNC(=O)CN(c1nc(Nc2ccc3c(c2)S(=O)(=O)NC3)ncc1F)c1cccc2[nH]ncc12 [GTC000358A]', 'IC50', '81.8 nM'),
  ('CCN(C(C)=O)c1ccc(Nc2nccc(Nc3cccc4[nH]ncc34)n2)cc1 [GTC000172A]', 'IC50', '589 nM'),
  ('O=S(=O)(c1cccc(Nc2nccc(Nc3cccc4[nH]ncc34)n2)c1)N1CCCCC1 [GTC000179A]', 'IC50', '4160 nM'),
  ('CC(C)c1ccc(Nc2nccc(Nc3cccc4[nH]ncc34)n2)cc1 [GTC000128A]', 'IC50', '219 nM');

---

Items are presented alongside their recorded pIC50.
Biological target: Tyrosine-protein kinase SYK [355-635] (Homo sapiens)
Construct: 355-635
Test: SYK assay_HTRF
pIC50: −log10 of the molar value.
RESULT TYPE: pIC50

INSERT INTO results (molecule, result_type, measured_value) VALUES
  ('CCN(c1nc(Nc2cccc(S(C)(=O)=O)c2)ncc1F)c1cccc2[nH]ncc12 [GTC000300A]', 'pIC50', 7.95),
  ('CN(c1nc(Nc2ccc(C(N)=O)cc2)ncc1F)c1cccc2[nH]ncc12 [GTC000351A]', 'pIC50', 7.44),
  ('COCCN(c1ccnc(Nc2ccc3c(cnn3C)c2)n1)c1cccc2[nH]ncc12 [GTC000345A]', 'pIC50', 7.51),
  ('O=c1[nH]c2ccc(Nc3nccc(N(CC4CCNCC4)c4cccc5[nH]ncc45)n3)cc2[nH]1 [GTC000292A]', 'pIC50', 7.97);

---

Overview of recorded pIC50 for various molecules
Target: Tyrosine-protein kinase SYK [355-635] (Homo sapiens)
pIC50: −log10 of the molar value.
RESULT TYPE: pIC50

INSERT INTO measurements (molecule, result_type, measured_value) VALUES
  ('NC(=O)c1cccc(Nc2nccc(N(CCO)c3cccc4[nH]ncc34)n2)c1 [GTC000281A]', 'pIC50', 8.14),
  ('CCN(c1nc(Nc2cc(S(N)(=O)=O)ccc2OC)ncc1F)c1cccc2[nH]ncc12 [GTC000341A]', 'pIC50', 7.52),
  ('O=C(O)c1cccc(Nc2nccc(Nc3cccc4[nH]ncc34)n2)c1 [GTC000119A]', 'pIC50', 6.68),
  ('CCN(c1nc(Nc2cccc(N3CCN(C)CC3)c2)ncc1F)c1cccc2[nH]ncc12 [GTC000331A]', 'pIC50', 7.62),
  ('O=c1[nH]c2ccc(Nc3nccc(N(CCCO)c4cccc5[nH]ncc45)n3)cc2[nH]1 [GTC000256A]', 'pIC50', 8.30),
  ('NS(=O)(=O)c1cccc(Nc2nccc(N(CCCO)c3cccc4[nH]ncc34)n2)c1 [GTC000259A]', 'pIC50', 8.30),
  ('CCN(c1nc(Nc2ccc3c(c2)CC(=O)N3)ncc1F)c1cccc2[nH]ncc12 [GTC000272A]', 'pIC50', 8.16),
  ('COCCCN(c1nc(Nc2ccc3c(cnn3C)c2)ncc1F)c1cccc2[nH]ncc12 [GTC000294A]', 'pIC50', 7.99),
  ('NS(=O)(=O)c1cccc(Nc2nccc(N(CC(F)(F)F)c3cccc4[nH]ncc34)n2)c1 [GTC000365A]', 'pIC50', 7.01),
  ('CCN(c1nc(Nc2ccc(C(=O)NC)cc2)ncc1F)c1cccc2[nH]ncc12 [GTC000271A]', 'pIC50', 8.18),
  ('CN(c1nc(Nc2ccc3cnn(C)c3c2)ncc1F)c1cccc2[nH]ncc12 [GTC000276A]', 'pIC50', 8.22),
  ('O=C1NC(=O)c2cc(Nc3nccc(Nc4cccc5[nH]ncc45)n3)ccc21 [GTC000171A]', 'pIC50', 6.30),
  ('CCN(c1nc(Nc2ccc3c(C)n(CCCO)nc3c2)ncc1F)c1cccc2[nH]ncc12 [GTC000370A]', 'pIC50', 6.73),
  ('O=C(Cc1ccc(Nc2nccc(Nc3cccc4[nH]ncc34)n2)cc1)Nc1cccc(C(F)(F)F)c1 [GTC000212A]', 'pIC50', 5.98),
  ('O=S1(=O)NCc2ccc(Nc3ncc(F)c(N(CC4CCOC4)c4cccc5[nH]ncc45)n3)cc21 (stereo not drawn) [GTC000253A]', 'pIC50', 8.28),
  ('CCN(c1nc(Nc2ccc3c(c2)COC(=O)N3)ncc1F)c1cccc2[nH]ncc12 [GTC000268A]', 'pIC50', 8.17),
  ('CCN(c1nc(Nc2ccc3cn[nH]c3c2)ncc1F)c1cccc2[nH]ncc12 [GTC000247A]', 'pIC50', 8.37),
  ('CCN(c1nc(Nc2cccc(-c3cccnc3)c2)ncc1F)c1cccc2[nH]ncc12 [GTC000340A]', 'pIC50', 7.53),
  ('CCN(c1nc(Nc2ccc3c(c2)NC(=O)CO3)ncc1F)c1cccc2[nH]ncc12 [GTC000357A]', 'pIC50', 7.17),
  ('CCN(c1nc(Nc2ccc3cnn(CCCCO)c3c2)ncc1F)c1cccc2[nH]ncc12 [GTC000299A]', 'pIC50', 7.86),
  ('Cn1ncc2cc(Nc3nccc(N(CCCCO)c4cccc5[nH]ncc45)n3)ccc21 [GTC000287A]', 'pIC50', 8.09),
  ('O=C1Nc2ccc(Nc3nccc(N(CCO)c4cccc5[nH]ncc45)n3)cc2CO1 [GTC000258A]', 'pIC50', 8.30),
  ('CS(=O)(=O)c1cccc(Nc2nccc(N(CCO)c3cccc4[nH]ncc34)n2)c1 [GTC000311A]', 'pIC50', 7.82);
